# System: human foreskin fibroblasts (HFF)
# TEST DETAILS: HFF cytotoxicity assessment
# Type: cell-based
# CONDITION SET: Homo sapiens, Fibroblast; uninfected HFF; no decline in viability over the concentration range
REPORTED METRIC: IC50

INPUT: Which measured IC50 value corresponds to CCCCCCCCCCOc1cc2c(OC(=O)N3CCN(S(C)(=O)=O)C3=O)c(C(=O)OCCOC)cnc2cc1OCC ?
OUTPUT: > 10 µM

INPUT: Which measured IC50 value corresponds to CCCCCCCCCCOc1cc2c(OC(=O)N3CCN(CC)C(=O)C3=O)c(C(=O)OCCOC)cnc2cc1OCC ?
OUTPUT: > 5 µM

INPUT: Which measured IC50 value corresponds to CCCCCCCCCCOc1cc2c(O)c(C(=O)OCC)cnc2cc1OCC ?
OUTPUT: > 5 µM

INPUT: Which measured IC50 value corresponds to CCCCCCCCCCOc1cc2c(OC(=O)N3CCN(S(C)(=O)=O)C3=O)c(C(=O)OCC)cnc2cc1OCC ?
OUTPUT: > 10 µM
